Numbers sourced from patent US20200121803A1.

# Molt4 IC50 (nM), 50% inhibition of cell proliferation, 72 h, ATPlite listing for each entry below
# tgt: T1, human CD98, endogenously expressed on Molt-4 human acute lymphoblastic leukemia cells (human)
# T1 chain: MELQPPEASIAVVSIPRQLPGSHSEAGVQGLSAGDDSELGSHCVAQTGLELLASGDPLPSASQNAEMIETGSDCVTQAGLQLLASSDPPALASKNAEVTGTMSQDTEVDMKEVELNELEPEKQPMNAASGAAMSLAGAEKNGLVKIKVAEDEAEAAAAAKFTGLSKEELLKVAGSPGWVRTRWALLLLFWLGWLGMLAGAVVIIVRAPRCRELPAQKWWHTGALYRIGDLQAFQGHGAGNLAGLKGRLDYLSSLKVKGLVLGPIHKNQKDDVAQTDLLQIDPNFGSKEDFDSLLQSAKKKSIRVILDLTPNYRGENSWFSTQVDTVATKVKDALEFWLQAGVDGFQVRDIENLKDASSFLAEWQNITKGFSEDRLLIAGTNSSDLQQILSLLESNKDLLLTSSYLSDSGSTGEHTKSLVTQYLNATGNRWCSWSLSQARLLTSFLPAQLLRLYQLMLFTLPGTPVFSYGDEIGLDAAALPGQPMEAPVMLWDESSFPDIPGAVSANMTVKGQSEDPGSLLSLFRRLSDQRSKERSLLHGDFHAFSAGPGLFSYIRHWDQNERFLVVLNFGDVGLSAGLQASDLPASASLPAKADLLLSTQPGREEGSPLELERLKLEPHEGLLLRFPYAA
# procedure_details: cell-based or functional assay
Number in nM, nothing else.

Below, 3 binders whose answers are already recorded.
Req: Item under review: CD98 (CL-huAb102)-YG (antibody, human IgG1, kappa, L234A L235A, V domains shown, synthon YG on reduced cysteine (see heavy chain); Bcl-xL inhibitor synthon YG on cysteines freed by TCEP reduction (Method E); DAR 1.1 by MS for the whole ADC) VH: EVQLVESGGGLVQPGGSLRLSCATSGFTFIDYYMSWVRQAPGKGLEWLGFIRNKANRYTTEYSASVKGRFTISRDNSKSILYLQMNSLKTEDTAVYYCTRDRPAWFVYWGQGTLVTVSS VL: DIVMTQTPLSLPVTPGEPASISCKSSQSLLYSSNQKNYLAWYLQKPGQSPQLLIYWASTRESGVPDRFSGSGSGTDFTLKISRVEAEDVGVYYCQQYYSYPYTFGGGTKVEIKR . Reported Molt4 IC50 (nM), 50% inhibition of cell proliferation, 72 h, ATPlite?
Resp: 1.21

Req: I have this binder here, CD98 (CL-huAb102)-KZ (second row with this label, r76, DAR 2.2) (antibody, human IgG1, kappa, L234A L235A, V domains shown, synthon KZ on reduced cysteine (see heavy chain); Bcl-xL inhibitor synthon KZ on cysteines freed by TCEP reduction (Method A); DAR 2.2 by MS for the whole ADC) VH: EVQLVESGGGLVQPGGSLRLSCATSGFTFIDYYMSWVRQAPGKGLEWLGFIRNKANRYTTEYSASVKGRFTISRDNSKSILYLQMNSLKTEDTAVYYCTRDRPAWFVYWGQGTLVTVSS VL: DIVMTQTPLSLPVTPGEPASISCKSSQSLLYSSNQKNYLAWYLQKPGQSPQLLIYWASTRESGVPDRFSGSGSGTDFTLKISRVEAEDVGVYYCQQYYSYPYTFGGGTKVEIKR , and I need its recorded Molt4 IC50 (nM), 50% inhibition of cell proliferation, 72 h, ATPlite.
Resp: 0.35

Req: Entry CD98 (CL-huAb110)-SE (antibody, human IgG1, kappa, L234A L235A, V domains shown, synthon SE on reduced cysteine (see heavy chain); Bcl-xL inhibitor synthon SE on cysteines freed by TCEP reduction (Method A); DAR 1.9 by MS for the whole ADC) VH: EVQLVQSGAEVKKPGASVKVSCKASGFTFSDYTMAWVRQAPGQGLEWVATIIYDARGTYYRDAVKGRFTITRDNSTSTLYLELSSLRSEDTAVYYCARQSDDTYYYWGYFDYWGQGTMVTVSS VL: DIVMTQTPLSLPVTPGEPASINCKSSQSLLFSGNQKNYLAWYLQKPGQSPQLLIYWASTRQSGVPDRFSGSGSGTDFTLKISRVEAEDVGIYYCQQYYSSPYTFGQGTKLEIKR has what Molt4 IC50 (nM), 50% inhibition of cell proliferation, 72 h, ATPlite?
Resp: 0.502

Continuing:
Req: Consider the binder CD98 (CL-huAb104)-KZ (antibody, human IgG1, kappa, L234A L235A, V domains shown, synthon KZ on reduced cysteine (see heavy chain); Bcl-xL inhibitor synthon KZ on cysteines freed by TCEP reduction (Method A); DAR 2.6 by MS for the whole ADC) VH: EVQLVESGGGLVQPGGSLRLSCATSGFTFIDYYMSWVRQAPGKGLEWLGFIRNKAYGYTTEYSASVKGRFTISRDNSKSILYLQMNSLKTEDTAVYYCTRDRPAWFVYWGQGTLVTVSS VL: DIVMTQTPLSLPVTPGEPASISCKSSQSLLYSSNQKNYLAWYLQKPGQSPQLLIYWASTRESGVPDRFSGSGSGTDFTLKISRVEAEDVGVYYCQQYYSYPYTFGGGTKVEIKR and give its measured Molt4 IC50 (nM), 50% inhibition of cell proliferation, 72 h, ATPlite.
Resp: 0.089

Req: Endpoint output: Molt4 IC50 (nM), 50% inhibition of cell proliferation, 72 h, ATPlite of CD98 (CL-huAb108)-XW (antibody, human IgG1, kappa, L234A L235A, V domains shown, synthon XW on reduced cysteine (see heavy chain); Bcl-xL inhibitor synthon XW on cysteines freed by TCEP reduction (Method G); DAR 3.5 by MS for the whole ADC) VH: EVQLVQSGAEVKKPGASVKVSCKASGFTFSDYTMAWVRQAPGQGLEWVATIIYSGRGTYYRDAVKGRFTITRDNSTSTLYLELSSLRSEDTAVYYCARQSDDTYYYWGYFDYWGQGTMVTVSS VL: DIVMTQTPLSLPVTPGEPASINCKSSQSLLFSGNQKNYLAWYLQKPGQSPQLLIYWASTRQSGVPDRFSGSGSGTDFTLKISRVEAEDVGIYYCQQYYDVPYTFGQGTKLEIKR . Value?
Resp: 0.281

Req: Which measured Molt4 IC50 (nM), 50% inhibition of cell proliferation, 72 h, ATPlite value corresponds to CD98 (CL-huAb102)-SE (antibody, human IgG1, kappa, L234A L235A, V domains shown, synthon SE on reduced cysteine (see heavy chain); Bcl-xL inhibitor synthon SE on cysteines freed by TCEP reduction (Method A); DAR 2.2 by MS for the whole ADC) VH: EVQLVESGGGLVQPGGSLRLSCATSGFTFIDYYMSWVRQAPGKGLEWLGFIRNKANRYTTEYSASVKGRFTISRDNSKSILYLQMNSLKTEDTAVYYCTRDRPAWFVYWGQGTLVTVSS VL: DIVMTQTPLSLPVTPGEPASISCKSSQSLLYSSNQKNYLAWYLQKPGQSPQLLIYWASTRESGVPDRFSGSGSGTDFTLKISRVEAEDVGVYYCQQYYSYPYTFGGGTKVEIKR ?
Resp: 0.107
